study_system: T1, Rhesus CD3εδ Fc heterodimer (rhesus)
T1 construct: extracellular domain; also called Rh CD3εδ-Fc
procedure_summary: BLI (Octet), Fab monovalent, pH 7.4
Method: ForteBio KD measurements (Biolayer interferometry; BLI). […] Sensors were equilibrated off-line in assay buffer for 30 min and then monitored on-line for 60 seconds for baseline establishment. […] Kinetics were analyzed using the 1:1 binding model. For measuring binding at different pHs, measurements were performed at pre-determined pHs (e.g., pH 7.4 and pH 6.0). […]
Quick list: Kd per entry.

binder | Kd (nM)
Antibody No. V015 (ADI-76358) Fab (Fab, V domains shown, Fab by papain digestion of the IgG1) VH: QVQLVQSGAEVKKPGASVKVSCKASGFNIKDYYMHWVRQAPGQRLEWMGWIDLENADTIYDAKFQGRVTITRDTSASTAYMELSSLRSEDTAVYYCARDQYGRYFYDVWGQGTLVTVSS VL: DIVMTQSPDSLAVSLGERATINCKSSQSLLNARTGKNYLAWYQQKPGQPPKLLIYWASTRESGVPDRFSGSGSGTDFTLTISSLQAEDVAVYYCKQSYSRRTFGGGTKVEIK | 53
Antibody No. V013 (ADI-70330) Fab (Fab, V domains shown, Fab by papain digestion of the IgG1) VH: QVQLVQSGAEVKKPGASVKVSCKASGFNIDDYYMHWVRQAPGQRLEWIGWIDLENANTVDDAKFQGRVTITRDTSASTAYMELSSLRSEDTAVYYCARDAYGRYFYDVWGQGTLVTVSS VL: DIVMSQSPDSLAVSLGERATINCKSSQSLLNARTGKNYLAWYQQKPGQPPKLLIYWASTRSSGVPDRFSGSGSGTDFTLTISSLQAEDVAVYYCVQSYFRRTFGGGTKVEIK | 2.5
